- experimentalTarget: Human IP6K1 (Homo sapiens)
- Construct: GST (N, cleaved yes); made in house; host or cells: C43 E. coli, pGEX-6P-2
- Sequence (Q92551 whole entry): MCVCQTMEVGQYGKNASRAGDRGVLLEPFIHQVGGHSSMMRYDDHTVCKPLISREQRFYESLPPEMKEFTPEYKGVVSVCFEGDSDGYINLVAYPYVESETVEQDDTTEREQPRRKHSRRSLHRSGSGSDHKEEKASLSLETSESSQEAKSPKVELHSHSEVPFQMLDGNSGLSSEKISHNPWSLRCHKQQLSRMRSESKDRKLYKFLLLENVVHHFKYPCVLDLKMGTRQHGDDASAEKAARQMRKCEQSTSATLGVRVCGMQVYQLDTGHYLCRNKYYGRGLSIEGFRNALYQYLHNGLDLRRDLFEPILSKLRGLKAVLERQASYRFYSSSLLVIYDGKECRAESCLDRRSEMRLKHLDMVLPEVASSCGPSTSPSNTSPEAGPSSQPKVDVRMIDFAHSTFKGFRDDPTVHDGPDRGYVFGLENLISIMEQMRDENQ
- assayRemarks: IP6K1 high-throughput screen of the Sigma LOPAC (ADP-Glo Max, single point);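 further: final compound concentration 10µM in 5% DMSO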
- Assay type: biochemical
- recordedConditions: Sigma LOPAC single-point screen, ADP-Glo Max raw signal per well
Param label: returns rule met when Raw Signal < 60000, returns rule not met otherwise, including exact equality.

Example entries and their recorded answers appear below.
- compound: "CC12NC(Cc3ccccc31)c1ccccc12.O=C(O)/C=C\\C(=O)O (single isomer, unassigned; (+)) [(+)-MK-801 hydrogen maleate]"
  class: "rule met"
- compound: "Nc1nc(SCc2ccc([N+](=O)[O-])cc2)c2ncn([C@@H]3O[C@H](CO)[C@@H](O)[C@H]3O)c2n1"
  class: "rule not met"
- compound: "Br.Br.N=C(N)SCCc1cccc(CCSC(=N)N)c1 [1,3-PBIT dihydrobromide]"
  class: "rule not met"
- compound: "CC(=O)NNC(=O)N1Cc2ccccc2Oc2ccc(Cl)cc21"
  class: "rule met"

Enquiry: Please state whether Raw Signal is below 60000 for CC(=O)O[C@]1(C(C)=O)CC[C@H]2[C@@H]3C=C(Cl)C4=CC(=O)[C@@H]5C[C@@H]5[C@]4(C)[C@H]3CC[C@@]21C [Cyproterone acetate]
Return: rule not met

Origin of measurements: paper PMC5706701
